Parameter pIC50: see the listing below.
Target: STING (Homo sapiens, UniProt Q86WV6)
Sequence (Q86WV6 whole entry): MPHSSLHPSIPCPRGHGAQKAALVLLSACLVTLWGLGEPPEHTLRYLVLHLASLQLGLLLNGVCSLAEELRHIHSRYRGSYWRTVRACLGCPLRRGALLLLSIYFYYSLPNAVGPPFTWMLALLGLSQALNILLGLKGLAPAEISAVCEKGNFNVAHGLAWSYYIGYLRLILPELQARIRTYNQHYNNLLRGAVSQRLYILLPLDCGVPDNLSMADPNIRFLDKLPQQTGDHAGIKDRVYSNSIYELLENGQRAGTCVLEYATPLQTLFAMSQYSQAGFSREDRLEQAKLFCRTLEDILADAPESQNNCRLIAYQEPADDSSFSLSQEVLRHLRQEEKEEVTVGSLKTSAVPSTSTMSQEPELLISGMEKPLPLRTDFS
Assay: STING antagonist activity, cell-based ISG54 promoter-reporter luciferase measurement of IRF activity (THP-1 dual / RAW-ISG cells)
Settings: Antagonist Activity of Exemplary Compounds; cell line and agonist not given; read-out: IC50
Description: THP-1 dual cells (InvivoGen) were cultured under 5% CO2 at 37° C. in RPMI containing 10% fetal bovine serum (FBS), 100 IU mL-1 penicillin and 100 μg mL-1 streptomycin. […] 50,000 cells seeded in a 96-well flat bottom white assay plate were treated with different concentrations (10 uM to 0.01 uM) of compounds for 1 h followed by STING induction with either 30 nM SB 11285 or 10 ug/mL 2′-3′ cGAMP. […] IC50 was calculated by plotting in Xlfit. […]
pIC50: −log10 of the molar value.

# count of solved cases: 3
COC(=O)CCCCCO[C@@H]1CCN(CCCCCCn2c(C)nc3nc(Cl)nc(Cl)c32)C1
6.00 to 9.00
COC(=O)CCCCCCCCCCCCCCCn1c(C)nc2nc(Cl)nc(S(=O)(=O)C(C)C)c21
6.00 to 9.00
COC(=O)CCCCCCNCCCCCCCCn1c(C)nc2nc(Cl)nc(S(=O)(=O)C(C)C)c21
6.00 to 9.00

The record that follows has no pIC50 shown yet.
pIC50 reported for this molecule "COc1ccc(Cn2c(C)nc3nc(Cl)nc(Cl)c32)cc1" : 5.30 to 6.00

* * *

Parameter IC50: see the listing below.
biological target: STING (Homo sapiens, UniProt Q86WV6); experiment: STING antagonist activity, cell-based ISG54 promoter-reporter luciferase measurement of IRF activity (THP-1 dual / RAW-ISG cells); details: Antagonist Activity of Exemplary Compounds; cell line and agonist not given; read-out: IC50

OCCCCCCCCCCn1cnc2nc(Cl)nc(Cl)c21
1 to 1000 nM
Cc1nc2nc(Cl)nc(Cl)c2n1CCCCCCCCCCCCCCCC(=O)OC(CO)CO
1000 to 5000 nM

IC50 reported for this molecule "Cc1nc2nc(Cl)nc(S(=O)(=O)C(C)C)c2n1CCCCCCCCCCCCCCCC(=O)OCCO" : 1 to 1000 nM

IC50 reported for this molecule "COC(=O)CCCCCCCCCCCCCCCn1c(C)nc2nc(Cl)nc(S(C)(=O)=O)c21" : 1 to 1000 nM

IC50 reported for this molecule "Cc1nc2nc(Cl)nc(S(=O)(=O)C(C)C)c2n1CCCCCCCCCCCCCCCC(=O)N(C)C" : 1 to 1000 nM

IC50 reported for this molecule "Cc1nc2c(Cl)nc(Cl)nc2n1CCCCCCCCCCCCCCCCO" : 5000 to 10000 nM

IC50 reported for this molecule "COCc1nc2nc(Cl)nc(Cl)c2n1CCCCCCCCCCCCCCCC(=O)OC" : 1 to 1000 nM

IC50 reported for this molecule "CC(C)n1cnc2nc(Cl)nc(Cl)c21" : > 20000 nM

IC50 reported for this molecule "COC(=O)CCCCCCCCCCCCCCCn1c(CCl)nc2nc(Cl)nc(Cl)c21" : 1 to 1000 nM

IC50 reported for this molecule "Cc1nc2nc(Cl)nc(Cl)c2n1CCCCCCCl" : 1000 to 5000 nM
